test: Cytotoxicity experiment (MTT method) on C8166 cells; type: cell-based; settings: human; C8166 cells, MTT, three days; read-out: CC50
Attribute Measured: CC50 at 3 days (µM)

Molecule: Cc1ccnc2c1NC(=O)c1cccnc1N2C1CC1 [NVP, Nevirapine, reference compound]
Uom: µM
Readout Number: 504

----------
experiment: Cytotoxicity experiment (MTT method) on C8166 cells; type: cell-based; conditions: human

Compound: CC(C)c1c(CC2CCCCC2)nc(SCC(=O)c2ccc(OC(=O)C3CCCN3)cc2)[nH]c1=O (stereo not drawn)
Value Modifier: =
CC50 at 3 days, µM: 98.3

Compound: Cc1cn([C@H]2C[C@H](N=[N+]=[N-])[C@@H](CO)O2)c(=O)[nH]c1=O [AZT, Zidovudine, reference compound]
Value Modifier: >
CC50 at 3 days, µM: 749

Compound: CCc1c(CC2CCCCC2)nc(SCC(=O)c2ccc(OC(=O)C(N)CCCCN)cc2)[nH]c1=O (stereo not drawn)
Value Modifier: =
CC50 at 3 days, µM: 101

Compound: CC(C)CC(N)C(=O)Oc1ccc(C(=O)CSc2nc(CC3CCCCC3)c(C(C)C)c(=O)[nH]2)cc1 (stereo not drawn)
Value Modifier: =
CC50 at 3 days, µM: 97.4

Compound: CSCCC(N)C(=O)Oc1ccc(C(=O)CSc2nc(CC3CCCCC3)c(C)c(=O)[nH]2)cc1 (stereo not drawn)
Value Modifier: =
CC50 at 3 days, µM: 199

Compound: CC(C)c1c(CC2CCCCC2)nc(SCC(=O)c2ccc(OC(=O)C(N)Cc3ccccc3)cc2)[nH]c1=O (stereo not drawn)
Value Modifier: =
CC50 at 3 days, µM: 95

Compound: CSCCC(N)C(=O)Oc1ccc(C(=O)CSc2nc(CC3CCCCC3)c(C(C)C)c(=O)[nH]2)cc1 (stereo not drawn)
Value Modifier: =
CC50 at 3 days, µM: 153

Compound: CCc1c(CC2CCCCC2)nc(SCC(=O)c2ccc(OC(=O)C3CCCN3)cc2)[nH]c1=O (stereo not drawn)
Value Modifier: =
CC50 at 3 days, µM: 95.4

Compound: CCc1c(CC2CCCCC2)nc(SCC(=O)c2ccc(OC(=O)[C@H](N)[C@H](C)CC)cc2)[nH]c1=O
Value Modifier: =
CC50 at 3 days, µM: 134

Compound: CCc1c(CC2CCCCC2)nc(SCC(=O)c2ccc(OC(=O)CN)cc2)[nH]c1=O
Value Modifier: =
CC50 at 3 days, µM: 138

Compound: CC[C@@H](C)[C@@H](N)C(=O)Oc1ccc(C(=O)CSc2nc(CC3CCCCC3)c(C(C)C)c(=O)[nH]2)cc1
Value Modifier: =
CC50 at 3 days, µM: 186

Compound: CCc1c(CC2CCCCC2)nc(SCC(=O)c2ccc(OC(=O)[C@@H](C)N)cc2)[nH]c1=O
Value Modifier: =
CC50 at 3 days, µM: 96

Compound: CC(C)c1c(CC2CCCCC2)nc(SCC(=O)c2ccc(OC(=O)C(N)C(C)C)cc2)[nH]c1=O (stereo not drawn)
Value Modifier: =
CC50 at 3 days, µM: 126

Compound: CCc1c(CC2CCCCC2)nc(SCC(=O)c2ccc(OC(=O)C(N)CC(N)=O)cc2)[nH]c1=O (stereo not drawn)
Value Modifier: =
CC50 at 3 days, µM: 120

Compound: CCc1c(CC2CCCCC2)nc(SCC(=O)c2ccc(OC(=O)C(N)Cc3cnc[nH]3)cc2)[nH]c1=O (stereo not drawn)
Value Modifier: =
CC50 at 3 days, µM: 199

Compound: CC(C)c1c(CC2CCCCC2)nc(SCC(=O)c2ccc(OC(=O)C(N)Cc3c[nH]c4ccccc34)cc2)[nH]c1=O (stereo not drawn)
Value Modifier: =
CC50 at 3 days, µM: 118

Compound: CCc1c(CC2CCCCC2)nc(SCC(=O)c2ccc(OC(=O)C(N)CC(C)C)cc2)[nH]c1=O (stereo not drawn)
Value Modifier: =
CC50 at 3 days, µM: 112

Compound: CCc1c(CC2CCCCC2)nc(SCC(=O)c2ccc(OC(=O)C(N)CCC(N)=O)cc2)[nH]c1=O (stereo not drawn)
Value Modifier: =
CC50 at 3 days, µM: 118

Compound: CCc1c(CC2CCCCC2)nc(SCC(=O)c2ccc(OC(=O)C(N)C(C)C)cc2)[nH]c1=O (stereo not drawn)
Value Modifier: =
CC50 at 3 days, µM: 94.8

Compound: CCc1c(CC2CCCCC2)nc(SCC(=O)c2ccc(OC(=O)C(N)CCSC)cc2)[nH]c1=O (stereo not drawn)
Value Modifier: =
CC50 at 3 days, µM: 116

Compound: Cc1c(CC2CCCCC2)nc(SCC(=O)c2ccc(OC(=O)C(N)Cc3ccccc3)cc2)[nH]c1=O (stereo not drawn)
Value Modifier: =
CC50 at 3 days, µM: 98.6

Cited source: patent US11420959B2
